System: Escherichia coli TOP10;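 further: peptides expressed intracellularly from a pBAD plasmid library in pooled LB shake-flask culture, induced with 0.3% L-arabinose, DNA abundance read by NGS, three biological replicates, DESeq2 with apeglm shrinkage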
Assay: shrunken log2 fold change of peptide-encoding DNA abundance (4.5 h post-induction vs induction); higher = less antimicrobial activity (less host growth inhibition)
Conditions: time post-induction: 4.5 h; library: site-saturation at positions 5, 18, 19, 20
In this section, each of the sequences is paired with its reported shrunken log2 fold change.
Test Readout: shrunken log2 fold change

sequence_entry=RRIRPRPPRLPRPRPRPKGVPRP test_value=0.000119
sequence_entry=RRIRQRPPRLPRPRPRPCKGPRP test_value=0.00408
sequence_entry=RRIRYRPPRLPRPRPRPDGPPRP test_value=0.123
sequence_entry=RRIRGRPPRLPRPRPRPLPSPRP test_value=0.83
sequence_entry=RRIRPRPPRLPRPRPRPPKMPRP test_value=0.401
sequence_entry=RRIRCRPPRLPRPRPRPAWAPRP test_value=0.108
sequence_entry=RRIRGRPPRLPRPRPRPLQFPRP test_value=0.312
sequence_entry=RRIRCRPPRLPRPRPRPILNPRP test_value=-0.431
sequence_entry=RRIRWRPPRLPRPRPRPRDCPRP test_value=0.226
sequence_entry=RRIRFRPPRLPRPRPRPRPHPRP test_value=0.355
sequence_entry=RRIRNRPPRLPRPRPRPERVPRP test_value=0.11
sequence_entry=RRIRLRPPRLPRPRPRPKYTPRP test_value=-0.61
sequence_entry=RRIRFRPPRLPRPRPRPWWDPRP test_value=-0.0745
sequence_entry=RRIRFRPPRLPRPRPRPNPNPRP test_value=-0.168
sequence_entry=RRIRQRPPRLPRPRPRPFQTPRP test_value=-0.01
